Reference for the values: ChEMBL document CHEMBL3992552

Test system: HCT-116
assay_protocol: Cytotoxicity against human HCT116 cells assessed as cell viability after 48 hrs by Hoechst 33342 staining based assay
Assay type: functional
conditions: HCT-116, 48 h
# label = t if IC50 < 7 µM else f

[
  {
    "compound": "Oc1cccc(-c2nc(N3CCOCC3)c3oc4ncccc4c3n2)c1 [PI-103]",
    "assay_target": "HCT-116",
    "assigned_class": "t"
  },
  {
    "compound": "COc1cc(OC)c(C(=O)/C=C/c2ccc(Br)cc2)c(OC)c1",
    "assay_target": "HCT-116",
    "assigned_class": "t"
  },
  {
    "compound": "COc1cc(O)c(C(=O)/C=C/c2ccccc2)c(OC)c1 [FLAVOKAWAIN B]",
    "assay_target": "HCT-116",
    "assigned_class": "f"
  },
  {
    "compound": "COc1cc(OC)c(C(=O)/C=C/c2ccccc2OC)c(OC)c1",
    "assay_target": "HCT-116",
    "assigned_class": "t"
  },
  {
    "compound": "COc1cc(O)c(C(=O)/C=C/c2ccccc2OC)c(OC)c1",
    "assay_target": "HCT-116",
    "assigned_class": "f"
  },
  {
    "compound": "COc1cc(OC)c(C(=O)/C=C/c2ccc(F)cc2)c(OC)c1",
    "assay_target": "HCT-116",
    "assigned_class": "t"
  },
  {
    "compound": "COc1cccc(/C=C/C(=O)c2c(OC)cc(OC)cc2OC)c1",
    "assay_target": "HCT-116",
    "assigned_class": "t"
  },
  {
    "compound": "COc1cc(O)c(C(=O)/C=C/c2ccccc2SC)c(OC)c1",
    "assay_target": "HCT-116",
    "assigned_class": "f"
  },
  {
    "compound": "COc1cccc(/C=C/C(=O)c2c(O)cc(OC)cc2OC)c1",
    "assay_target": "HCT-116",
    "assigned_class": "f"
  },
  {
    "compound": "COc1cc(O)c(C(=O)/C=C/c2ccc(F)cc2)c(OC)c1",
    "assay_target": "HCT-116",
    "assigned_class": "f"
  }
]

* * *

Ratio IC50 values for the compounds below.
assay_protocol: Selectivity index, ratio of IC50 for human fibroblasts to IC50 for human NCI-H727 cells
readout_type: Ratio IC50

[
  {
    "query_smiles": "COc1cccc(/C=C/C(=O)c2c(OC)cc(OC)cc2OC)c1",
    "modifier": ">",
    "readout_value": 6.1
  },
  {
    "query_smiles": "COc1cc(OC)c(C(=O)/C=C/c2ccccc2OC)c(OC)c1",
    "modifier": "=",
    "readout_value": 2.1
  },
  {
    "query_smiles": "COc1cc(O)c(C(=O)/C=C/c2ccccc2SC)c(OC)c1",
    "modifier": "=",
    "readout_value": 4
  },
  {
    "query_smiles": "COc1cc(OC)c(C(=O)/C=C/c2ccc(Br)cc2)c(OC)c1",
    "modifier": ">",
    "readout_value": 4.4
  },
  {
    "query_smiles": "COc1cc(OC)c(C(=O)/C=C/c2ccc(F)cc2)c(OC)c1",
    "modifier": ">",
    "readout_value": 9.1
  },
  {
    "query_smiles": "COc1cc(OC)c(C(=O)/C=C/c2ccccc2SC)c(OC)c1",
    "modifier": "=",
    "readout_value": 3.7
  },
  {
    "query_smiles": "COc1cccc(/C=C/C(=O)c2c(O)cc(OC)cc2OC)c1",
    "modifier": "=",
    "readout_value": 1.8
  },
  {
    "query_smiles": "COc1cc(O)c(C(=O)/C=C/c2ccccc2)c(OC)c1",
    "modifier": "=",
    "readout_value": 2.3
  },
  {
    "query_smiles": "COc1cc(O)c(C(=O)/C=C/c2ccccc2OC)c(OC)c1",
    "modifier": "=",
    "readout_value": 3.3
  },
  {
    "query_smiles": "COc1cc(OC)c(C(=O)/C=C/c2ccccc2)c(OC)c1",
    "modifier": ">",
    "readout_value": 4.4
  }
]

* * *

Tested on: NCI-H727
assay_protocol: Cell cycle arrest in human NCI-H727 cells harboring p53 mutant assessed as mitotic index at 25 uM measured after 48 hrs by Hoechst staining based fluorescence assay (reference value: 1.1)
Format: functional
readout_type: Activity_index

[
  {
    "compound": "COc1cc(OC)c(C(=O)/C=C/c2ccccc2SC)c(OC)c1",
    "assay_target": "NCI-H727",
    "readout_type": "Activity_index",
    "readout_value": 0
  },
  {
    "compound": "COc1cccc(/C=C/C(=O)c2c(OC)cc(OC)cc2OC)c1",
    "assay_target": "NCI-H727",
    "readout_type": "Activity_index",
    "readout_value": 0.1
  },
  {
    "compound": "COc1cccc(/C=C/C(=O)c2c(O)cc(OC)cc2OC)c1",
    "assay_target": "NCI-H727",
    "readout_type": "Activity_index",
    "readout_value": 0.1
  },
  {
    "compound": "COc1cc(O)c(C(=O)/C=C/c2ccccc2SC)c(OC)c1",
    "assay_target": "NCI-H727",
    "readout_type": "Activity_index",
    "readout_value": 0.4
  },
  {
    "compound": "COc1cc(O)c(C(=O)/C=C/c2ccccc2)c(OC)c1 [FLAVOKAWAIN B]",
    "assay_target": "NCI-H727",
    "readout_type": "Activity_index",
    "readout_value": 0.2
  },
  {
    "compound": "COc1cc(OC)c(C(=O)/C=C/c2ccc(F)cc2)c(OC)c1",
    "assay_target": "NCI-H727",
    "readout_type": "Activity_index",
    "readout_value": 0.4
  },
  {
    "compound": "COc1cc(OC)c(C(=O)/C=C/c2ccc(Br)cc2)c(OC)c1",
    "assay_target": "NCI-H727",
    "readout_type": "Activity_index",
    "readout_value": 0.7
  },
  {
    "compound": "COc1cc(O)c(C(=O)/C=C/c2ccccc2OC)c(OC)c1",
    "assay_target": "NCI-H727",
    "readout_type": "Activity_index",
    "readout_value": 0.5
  },
  {
    "compound": "COc1cc(OC)c(C(=O)/C=C/c2ccccc2)c(OC)c1",
    "assay_target": "NCI-H727",
    "readout_type": "Activity_index",
    "readout_value": 0.2
  }
]

* * *

Ratio IC50 values for the compounds below.
assay_protocol: Selectivity index, ratio of IC50 for human fibroblasts to IC50 for human RL cells
readout_type: Ratio IC50

[
  {
    "query_smiles": "COc1cc(O)c(C(=O)/C=C/c2ccccc2)c(OC)c1",
    "readout_type": "Ratio IC50",
    "modifier": "=",
    "readout_value": 3.2
  },
  {
    "query_smiles": "COc1cccc(/C=C/C(=O)c2c(O)cc(OC)cc2OC)c1",
    "readout_type": "Ratio IC50",
    "modifier": "=",
    "readout_value": 3
  },
  {
    "query_smiles": "COc1cc(OC)c(C(=O)/C=C/c2ccccc2OC)c(OC)c1",
    "readout_type": "Ratio IC50",
    "modifier": "=",
    "readout_value": 0.9
  },
  {
    "query_smiles": "COc1cc(O)c(C(=O)/C=C/c2ccccc2OC)c(OC)c1",
    "readout_type": "Ratio IC50",
    "modifier": "=",
    "readout_value": 3.6
  },
  {
    "query_smiles": "Oc1cccc(-c2nc(N3CCOCC3)c3oc4ncccc4c3n2)c1",
    "readout_type": "Ratio IC50",
    "modifier": ">",
    "readout_value": 8.6
  },
  {
    "query_smiles": "COc1cccc(/C=C/C(=O)c2c(OC)cc(OC)cc2OC)c1",
    "readout_type": "Ratio IC50",
    "modifier": ">",
    "readout_value": 8.5
  },
  {
    "query_smiles": "COc1cc(O)c(C(=O)/C=C/c2ccccc2SC)c(OC)c1",
    "readout_type": "Ratio IC50",
    "modifier": "=",
    "readout_value": 4.1
  },
  {
    "query_smiles": "COc1cc(OC)c(C(=O)/C=C/c2ccccc2SC)c(OC)c1",
    "readout_type": "Ratio IC50",
    "modifier": "=",
    "readout_value": 3.8
  },
  {
    "query_smiles": "COc1cc(OC)c(C(=O)/C=C/c2ccccc2)c(OC)c1",
    "readout_type": "Ratio IC50",
    "modifier": ">",
    "readout_value": 7.2
  },
  {
    "query_smiles": "COc1cc(OC)c(C(=O)/C=C/c2ccc(Br)cc2)c(OC)c1",
    "readout_type": "Ratio IC50",
    "modifier": ">",
    "readout_value": 6
  },
  {
    "query_smiles": "COc1cc(O)c(C(=O)/C=C/c2ccc(F)cc2)c(OC)c1",
    "readout_type": "Ratio IC50",
    "modifier": ">",
    "readout_value": 5.4
  },
  {
    "query_smiles": "COc1cc(OC)c(C(=O)/C=C/c2ccc(F)cc2)c(OC)c1",
    "readout_type": "Ratio IC50",
    "modifier": ">",
    "readout_value": 7.8
  }
]
